- METHOD NOTES: Crossover drug interaction study: oral cyclosporine 600 mg on pharmacokinetics of single-dose rifaximin 550 mg
- Type: in vivo, human
- ASSAY SETUP: both sexes, human, plasma, oral
RESULT TYPE: half-life (min)
Dear colleague, please return just the value in min, with no unit written.

[ask] Please report the recorded half-life for CO[C@H]1/C=C/O[C@@]2(C)Oc3c(C)c(O)c4c(O)c(c5c(nc6cc(C)ccn65)c4c3C2=O)NC(=O)/C(C)=C\C=C\[C@H](C)[C@H](O)[C@@H](C)[C@@H](O)[C@@H](C)[C@H](OC(C)=O)[C@@H]1C [Rifaximin] .
[reply] 397

====

- METHOD NOTES: Rifaximin systemic exposure/pharmacokinetics in healthy subjects, IBS subjects and liver impaired subjects
- Type: in vivo, human
- ASSAY SETUP: human, plasma, oral, 550 mg, IBS-D Patients; 550 mg Multiple-Dose TID (Day 14); N = 24; read-out: AUCtau, mean (SD)
RESULT TYPE: AUC (ng·h/mL)
Reply numerically in ng·h/mL, unit not repeated.

[ask] # input molecule: CO[C@H]1/C=C/O[C@@]2(C)Oc3c(C)c(O)c4c(O)c(c5c(nc6cc(C)ccn65)c4c3C2=O)NC(=O)/C(C)=C\C=C\[C@H](C)[C@H](O)[C@@H](C)[C@@H](O)[C@@H](C)[C@H](OC(C)=O)[C@@H]1C ; wanted: its AUC
[reply] 16

====

- METHOD NOTES: Rifaximin systemic exposure/pharmacokinetics in healthy subjects, IBS subjects and liver impaired subjects
- Assay type: in vivo, human
- ASSAY SETUP: human, plasma, 550 mg, multiple-dose TID; healthy subjects; read-out: Mean AUCtau, steady-state
RESULT TYPE: AUC
Include the unit after the number when you answer.

[ask] Consider the compound CO[C@H]1/C=C/O[C@@]2(C)Oc3c(C)c(O)c4c(O)c(c5c(nc6cc(C)ccn65)c4c3C2=O)NC(=O)/C(C)=C\C=C\[C@H](C)[C@H](O)[C@@H](C)[C@@H](O)[C@@H](C)[C@H](OC(C)=O)[C@@H]1C and give its measured AUC.
[reply] 9.3 ng·h/mL

====

- METHOD NOTES: Rifaximin systemic exposure/pharmacokinetics in healthy subjects, IBS subjects and liver impaired subjects
- Type: in vivo, human
- ASSAY SETUP: human, plasma, oral, 550 mg, IBS-D Patients; 550 mg Multiple-Dose TID (Day 14); N = 24; read-out: Cmax, mean (SD)
RESULT TYPE: Cmax (ng/mL)
The figure you give is taken to be in ng/mL; do not add the unit.

[ask] Any idea what its Cmax is? The molecule is CO[C@H]1/C=C/O[C@@]2(C)Oc3c(C)c(O)c4c(O)c(c5c(nc6cc(C)ccn65)c4c3C2=O)NC(=O)/C(C)=C\C=C\[C@H](C)[C@H](O)[C@@H](C)[C@@H](O)[C@@H](C)[C@H](OC(C)=O)[C@@H]1C
[reply] 4.22

====

- METHOD NOTES: Rifaximin systemic exposure/pharmacokinetics in healthy subjects, IBS subjects and liver impaired subjects
- Format: in vivo, human
- ASSAY SETUP: human, plasma, oral, 550 mg, IBS-D Patients; 550 mg Single-Dose (Day 1); N = 24; read-out: Tmax, Median (range)
RESULT TYPE: Tmax (min)
Lab book: enter the figure in min, no units written.

[ask] Given CO[C@H]1/C=C/O[C@@]2(C)Oc3c(C)c(O)c4c(O)c(c5c(nc6cc(C)ccn65)c4c3C2=O)NC(=O)/C(C)=C\C=C\[C@H](C)[C@H](O)[C@@H](C)[C@@H](O)[C@@H](C)[C@H](OC(C)=O)[C@@H]1C [Rifaximin] , state its recorded Tmax.
[reply] 46.5
